Biological target: soluble guanylate cyclase (sGC) (Homo sapiens, UniProt Q02108+Q02153)
Construct: endogenously expressing soluble guanylate cyclase (sGC); endogenous in cells; host or cells: HEK293
Sequence (Q02153 1-619): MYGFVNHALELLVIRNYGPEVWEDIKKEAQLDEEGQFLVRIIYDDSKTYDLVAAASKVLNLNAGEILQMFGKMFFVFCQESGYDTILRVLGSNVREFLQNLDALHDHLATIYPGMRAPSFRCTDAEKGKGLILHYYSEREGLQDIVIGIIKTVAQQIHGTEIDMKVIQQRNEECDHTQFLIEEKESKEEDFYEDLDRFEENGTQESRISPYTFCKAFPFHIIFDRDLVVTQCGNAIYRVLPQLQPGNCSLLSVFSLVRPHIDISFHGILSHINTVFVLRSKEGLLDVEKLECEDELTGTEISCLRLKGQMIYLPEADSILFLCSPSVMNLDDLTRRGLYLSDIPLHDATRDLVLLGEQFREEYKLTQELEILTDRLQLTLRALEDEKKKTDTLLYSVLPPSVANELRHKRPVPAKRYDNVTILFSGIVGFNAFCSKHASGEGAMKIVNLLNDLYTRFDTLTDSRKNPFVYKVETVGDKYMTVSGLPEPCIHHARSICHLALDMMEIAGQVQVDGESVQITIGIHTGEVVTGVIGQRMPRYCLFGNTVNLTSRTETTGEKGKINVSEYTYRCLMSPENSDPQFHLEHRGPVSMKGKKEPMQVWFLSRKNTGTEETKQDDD
Sequence (Q02108 1-690): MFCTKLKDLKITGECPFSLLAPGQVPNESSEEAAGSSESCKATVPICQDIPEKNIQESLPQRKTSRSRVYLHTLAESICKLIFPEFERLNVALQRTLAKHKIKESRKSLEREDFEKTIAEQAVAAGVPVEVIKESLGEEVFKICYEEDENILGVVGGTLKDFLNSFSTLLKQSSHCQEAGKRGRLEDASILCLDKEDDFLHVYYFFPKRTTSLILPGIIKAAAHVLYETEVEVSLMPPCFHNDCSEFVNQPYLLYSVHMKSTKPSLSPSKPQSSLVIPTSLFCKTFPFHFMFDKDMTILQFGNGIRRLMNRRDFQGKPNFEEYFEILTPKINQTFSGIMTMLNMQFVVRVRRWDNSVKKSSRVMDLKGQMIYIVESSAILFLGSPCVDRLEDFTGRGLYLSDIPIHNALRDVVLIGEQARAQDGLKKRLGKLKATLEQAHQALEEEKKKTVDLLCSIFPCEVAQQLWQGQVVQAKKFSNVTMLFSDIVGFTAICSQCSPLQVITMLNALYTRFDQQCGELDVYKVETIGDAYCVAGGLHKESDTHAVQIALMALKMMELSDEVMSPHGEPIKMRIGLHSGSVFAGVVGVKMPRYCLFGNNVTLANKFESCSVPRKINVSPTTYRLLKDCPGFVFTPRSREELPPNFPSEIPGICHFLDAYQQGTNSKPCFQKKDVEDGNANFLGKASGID
Test: sGC-HEK-cGMP assay (run with SNP incubation)
Assay type: cell-based
Details: Table 3C; top of concentration-response curve not fitted to 100%; 10 μM SNP; 100% = 30 μM BAY 41-2272 with 10 μM SNP; read-out: HEK assay Emax-unconstrained (Percent)

Structure string	Emax
Nc1nc(-c2cc(-c3ccon3)n(Cc3cccc(F)c3F)n2)ncc1NC(=O)c1ccn[nH]1	80 to 100%
Nc1nc(-c2cc(-c3ccon3)n(Cc3ccccc3F)n2)ncc1NC(=O)C(Cl)(Cl)Cl	60 to 80%
CC1(C)C(=O)Nc2nc(-c3cc(-c4ccon4)n(Cc4ccccc4F)n3)nc(N)c21	40 to 60%
Cn1[nH]c2nc(-c3cc(-c4ccon4)n(Cc4ccccc4F)n3)ncc2c1=O	60 to 80%

###

# EC50 per record follows
Target: soluble guanylate cyclase (sGC) (Homo sapiens, UniProt Q02108+Q02153)
Construct: endogenously expressing soluble guanylate cyclase (sGC); endogenous in cells; host or cells: HEK293
Test: sGC-HEK-cGMP assay (run with SNP incubation)
Type: cell-based
Conditions: in the presence of 10 μM SNP; top of concentration-response curve not fitted to 100%; Table 3E; read-out: HEK assay EC50-unconstrained

Molecule	Assayed target	EC50
Oc1nc(-c2cc(-c3ccon3)n(Cc3cccc(Cl)c3F)n2)ncc1Cl	soluble guanylate cyclase (sGC) (Homo sapiens, UniProt Q02108+Q02153)	0.01 to 0.5 µM
Nc1ccnc(-c2cc(-c3ccon3)n(Cc3ccc(F)cc3F)n2)n1	soluble guanylate cyclase (sGC) (Homo sapiens, UniProt Q02108+Q02153)	1 to 5 µM
Nc1ccnc(-c2cc(-c3ccon3)n(Cc3cc(F)ccc3F)n2)n1	soluble guanylate cyclase (sGC) (Homo sapiens, UniProt Q02108+Q02153)	0.5 to 1 µM
O=c1[nH]c(-c2cc(-c3ccon3)n(Cc3cc(F)ccc3F)n2)ncc1F	soluble guanylate cyclase (sGC) (Homo sapiens, UniProt Q02108+Q02153)	0.01 to 0.5 µM
Oc1ccnc(-c2cc(-c3ccon3)n(Cc3cccc(F)c3F)n2)n1	soluble guanylate cyclase (sGC) (Homo sapiens, UniProt Q02108+Q02153)	1 to 5 µM
Nc1nc(-c2cc(-c3ccon3)n(Cc3ccccc3F)n2)ncc1N1CC(C(F)(F)F)OC1=O (centres unmarked)	soluble guanylate cyclase (sGC) (Homo sapiens, UniProt Q02108+Q02153)	0.5 to 1 µM
O=c1[nH]c(-c2cc(-c3ncon3)n(Cc3cc(F)ccc3F)n2)ncc1F	soluble guanylate cyclase (sGC) (Homo sapiens, UniProt Q02108+Q02153)	1 to 5 µM
O=c1[nH]c(-c2cc(-c3ccccn3)n(Cc3ccccc3F)n2)ncc1F	soluble guanylate cyclase (sGC) (Homo sapiens, UniProt Q02108+Q02153)	5 to 10 µM
O=c1[nH]c(-c2cc(-c3ccon3)n(Cc3ccccc3F)n2)nc(F)c1C(F)(F)F	soluble guanylate cyclase (sGC) (Homo sapiens, UniProt Q02108+Q02153)	0.01 to 0.5 µM
Oc1nc(-c2cc(-c3ccoc3)n(Cc3ccccc3F)n2)ncc1F	soluble guanylate cyclase (sGC) (Homo sapiens, UniProt Q02108+Q02153)	0.01 to 0.5 µM
Oc1nc(-c2cc(-c3ccon3)n(Cc3cccc(F)c3F)n2)ncc1Cl	soluble guanylate cyclase (sGC) (Homo sapiens, UniProt Q02108+Q02153)	0.01 to 0.5 µM
Nc1nc(-c2cc(-c3ccon3)n(Cc3ccccc3F)n2)ncc1NC(=O)C1(N)CC1	soluble guanylate cyclase (sGC) (Homo sapiens, UniProt Q02108+Q02153)	0.5 to 1 µM
CC(=O)Nc1cnc(-c2cc(-c3ccon3)n(Cc3cccc(F)c3F)n2)nc1N	soluble guanylate cyclase (sGC) (Homo sapiens, UniProt Q02108+Q02153)	0.01 to 0.5 µM
Oc1nc(-c2cc(-c3ccco3)n(Cc3ccccc3F)n2)ncc1F	soluble guanylate cyclase (sGC) (Homo sapiens, UniProt Q02108+Q02153)	0.01 to 0.5 µM

###

Target: soluble guanylate cyclase (sGC) (Homo sapiens, UniProt Q02108+Q02153)
Construct: endogenously expressing soluble guanylate cyclase (sGC); endogenous in cells; host or cells: HEK293
Sequence (Q02153 1-619): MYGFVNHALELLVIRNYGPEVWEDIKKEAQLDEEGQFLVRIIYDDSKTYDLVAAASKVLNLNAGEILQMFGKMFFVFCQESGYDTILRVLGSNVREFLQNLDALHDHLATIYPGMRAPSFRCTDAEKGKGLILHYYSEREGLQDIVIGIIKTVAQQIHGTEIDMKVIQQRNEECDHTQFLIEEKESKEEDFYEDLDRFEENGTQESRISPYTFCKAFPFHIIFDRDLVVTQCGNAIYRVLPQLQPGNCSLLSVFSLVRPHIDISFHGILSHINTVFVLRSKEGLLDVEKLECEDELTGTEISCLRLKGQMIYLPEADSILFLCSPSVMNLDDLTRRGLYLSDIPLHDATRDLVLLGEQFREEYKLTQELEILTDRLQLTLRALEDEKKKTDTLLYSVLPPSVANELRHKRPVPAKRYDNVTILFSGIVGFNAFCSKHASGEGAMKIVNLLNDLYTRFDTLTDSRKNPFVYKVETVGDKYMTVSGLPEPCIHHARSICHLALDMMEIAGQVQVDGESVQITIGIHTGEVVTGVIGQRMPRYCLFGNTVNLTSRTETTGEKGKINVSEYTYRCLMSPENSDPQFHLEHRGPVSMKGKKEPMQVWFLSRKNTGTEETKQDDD
Sequence (Q02108 1-690): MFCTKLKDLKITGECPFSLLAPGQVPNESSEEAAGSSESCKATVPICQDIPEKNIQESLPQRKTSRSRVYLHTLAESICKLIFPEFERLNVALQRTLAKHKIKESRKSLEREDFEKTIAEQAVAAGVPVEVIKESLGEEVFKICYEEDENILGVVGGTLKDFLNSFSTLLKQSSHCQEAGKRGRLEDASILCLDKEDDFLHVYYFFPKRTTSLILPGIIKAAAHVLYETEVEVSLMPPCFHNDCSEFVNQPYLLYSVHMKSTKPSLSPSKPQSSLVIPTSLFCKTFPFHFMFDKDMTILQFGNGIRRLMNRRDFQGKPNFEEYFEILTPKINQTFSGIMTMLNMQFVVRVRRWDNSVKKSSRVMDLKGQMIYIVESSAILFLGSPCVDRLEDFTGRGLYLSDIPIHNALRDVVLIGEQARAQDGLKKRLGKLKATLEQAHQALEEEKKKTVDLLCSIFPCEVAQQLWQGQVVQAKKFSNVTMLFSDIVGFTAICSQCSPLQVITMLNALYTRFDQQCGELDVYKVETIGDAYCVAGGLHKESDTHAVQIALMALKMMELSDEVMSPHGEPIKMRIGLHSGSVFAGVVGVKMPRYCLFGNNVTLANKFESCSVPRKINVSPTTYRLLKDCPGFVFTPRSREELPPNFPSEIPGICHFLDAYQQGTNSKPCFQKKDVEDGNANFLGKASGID
Assay: sGC-HEK-cGMP assay (run with SNP incubation)
Type: cell-based
Conditions: Table 3A; top of concentration-response curve not fitted to 100%; 10 μM SNP; 100% = 30 μM BAY 41-2272 with 10 μM SNP; read-out: HEK assay Emax-unconstrained (Percent)
Endpoint name: Emax

Structure string	Assayed target	Endpoint name	Result
Oc1nc(-c2cc(-c3ncco3)n(Cc3ccccc3F)n2)ncc1Sc1ccccn1	soluble guanylate cyclase (sGC) (Homo sapiens, UniProt Q02108+Q02153)	Emax	60 to 80%
Oc1nc(-c2cc(-c3ccon3)n(Cc3ccccc3F)n2)ncc1Sc1ccccc1	soluble guanylate cyclase (sGC) (Homo sapiens, UniProt Q02108+Q02153)	Emax	100 to 120%
Oc1nc(-c2cc(-c3ccon3)n(Cc3ccccc3F)n2)ncc1-c1ncco1	soluble guanylate cyclase (sGC) (Homo sapiens, UniProt Q02108+Q02153)	Emax	80 to 100%
Oc1nc(-c2cc(-c3ccon3)n(Cc3ccccc3)n2)ncc1F	soluble guanylate cyclase (sGC) (Homo sapiens, UniProt Q02108+Q02153)	Emax	80 to 100%
CN(C)S(=O)(=O)c1cnc(-c2cc(-c3ccon3)n(Cc3ccccc3F)n2)[nH]c1=O	soluble guanylate cyclase (sGC) (Homo sapiens, UniProt Q02108+Q02153)	Emax	80 to 100%

meta.source: patent US20150342954A1
